assay-system: Human TREM2 (Homo sapiens, UniProt Q9NZC2)
Construct: expressed in transfected cells
Sequence (Q9NZC2 19-230): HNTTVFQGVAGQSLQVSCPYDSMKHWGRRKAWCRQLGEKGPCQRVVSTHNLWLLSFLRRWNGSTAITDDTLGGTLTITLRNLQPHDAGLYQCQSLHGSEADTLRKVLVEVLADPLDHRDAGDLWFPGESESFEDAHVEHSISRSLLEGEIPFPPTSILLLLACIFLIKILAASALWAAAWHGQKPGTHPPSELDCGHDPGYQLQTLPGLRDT
Sequence (O43914 22-113 partner): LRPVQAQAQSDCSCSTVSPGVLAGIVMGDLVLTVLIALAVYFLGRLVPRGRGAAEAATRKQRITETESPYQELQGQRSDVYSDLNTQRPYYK
assay-details: Human TREM2 activity: cellular phosphorylation of Syk (AlphaLISA SureFire Ultra p-SYK) in HEK293/DAP12+TREM2 stable cell line
Assay type: cell-based
condition-details: phospho-Syk AlphaLISA signal, HEK293/DAP12+TREM2 cells; concentration giving 50% of maximal response; read-out: EC50
EC50 for assorted compounds

The examples below pair each entry with its known result.
# compound, EC50
records = [
    ("Cc1nc2c(-c3cc(F)c(F)cc3F)nc(N3C[C@@H](c4cnn(C)c4)OC4(CCC4)C3)cc2c(=O)n1C (single isomer, unassigned) [Example 152A]", "100 to 1000 nM"),
    ("Cc1nc2c(-c3ccc(C(F)(F)F)nc3)nc([C@H]3CCO[C@@H](c4cnn(C)c4)C3)nc2c(=O)n1C (single isomer, unassigned) [Example 88B]", "> 1000 nM"),
]

query: May I ask what EC50 has been recorded for Cc1nc2c(C3CC4(C3)CC(F)(F)C4)nc(N3CCOC(c4cnn(C)c4)C3)nc2c(=O)n1C (stereo not drawn) ?
result: 100 to 1000 nM

query: May I ask what EC50 has been recorded for Cc1nc2c(-c3ccc(Cl)cc3F)nc(N3CCO[C@@H](c4cnn(C5CC5)c4)C3)cc2c(=O)n1C (single isomer, unassigned) [Example 131B] ?
result: 100 to 1000 nM

query: May I ask what EC50 has been recorded for Cc1cc([C@H]2CN(c3nc(-c4ccc(F)cc4F)c4nc(C(F)(F)F)n(C)c(=O)c4n3)C[C@@H](C)O2)ccn1 (single isomer, unassigned) [Example 191B] ?
result: 1 to 10 nM

query: May I ask what EC50 has been recorded for Cc1nc2c(-c3cc(F)c(F)cc3F)nc([C@H]3CCO[C@@H](c4cnn(C5CC5)c4)C3)cc2c(=O)n1C (single isomer, unassigned) [Example 139B] ?
result: 100 to 1000 nM

query: May I ask what EC50 has been recorded for Cc1nc2c(-c3ccc(Cl)cc3F)nc(N3CCOC(c4cn(C)cn4)C3)nc2c(=O)n1C (stereo not drawn) ?
result: > 1000 nM

query: May I ask what EC50 has been recorded for Cc1nc2c(-c3cc(F)c(F)cc3F)nc(N3C[C@H](c4cnn(C)c4)OC(C)(C)C3)cc2c(=O)n1C (single isomer, unassigned) [Example 150B] ?
result: > 1000 nM

query: May I ask what EC50 has been recorded for Cc1nc2c(-c3ccc(Cl)cc3F)nc(N3C[C@@H](c4cnn(C)n4)OC(C)(C)C3)cc2c(=O)n1C (single isomer, unassigned) [Example 147A] ?
result: 10 to 100 nM
